Test system: EKVX
Assay: NCI one-dose screen
Format: cell-based
Details: Homo sapiens, read-out: Growth Percent
quantity_measured: activity at 10 µM (%)
Output spec: scalar in %, unitless text.

Field: example entries. Status: answers known.
{"columns": ["structure_smiles", "system_tested", "observed"],
 "data": [
  ["O=C(/C=C/c1ccc(F)cc1)c1ccc(-n2cc(CN3CCN(c4cc5c(cc4F)c(=O)c(C(=O)O)cn5C4CC4)CC3)nn2)cc1", "EKVX", 87.5],
  ["Cc1ccc(/C=C/C(=O)c2ccc(-n3cc(CN4CCN(c5cc6c(cc5F)c(=O)c(C(=O)O)cn6C5CC5)CC4)nn3)cc2)cc1", "EKVX", 90.7]
]}

Please find the next compound below.
Input "O=C(/C=C/c1ccccc1)c1ccc(-n2cc(CN3CCN(c4cc5c(cc4F)c(=O)c(C(=O)O)cn5C4CC4)CC3)nn2)cc1" , output reported activity at 10 µM. 88.5
